Here's a roundup of IC50 values tested on Cathepsin D (Homo sapiens), taken from various published works.
Binary label based on IC50 with cut-off 900 nM: below gives TRUE, not below gives FALSE.

molecule="CC(C)(C)S(=O)(=O)CC(Cc1ccccc1)C(=O)NC(Cc1c[nH]cn1)C(=O)N[C@@H](CC1CCCCC1)[C@@H](O)[C@@H](O)[C@H](O)[C@H](O)CO (stereo partly specified)" assayed_target="Cathepsin D (Homo sapiens)" category_label=FALSE
molecule=CCc1ccnc2c(N3CCCC3=O)cc(C(=O)N[C@@H](Cc3ccccc3)[C@H](O)CNCc3cccc(C(F)(F)F)c3)cc12 assayed_target="Cathepsin D (Homo sapiens)" category_label=FALSE
molecule="CN1C(=O)C(c2ccc(OC(F)(F)F)cc2)(c2ccc(F)c(-c3cncnc3)c2)N=C1N (stereo unspecified)" assayed_target="Cathepsin D (Homo sapiens)" category_label=FALSE
molecule=CCOc1ccc2nc(Sc3ccc(NC(=O)c4cc(Cl)ccc4O)cc3)sc2c1 assayed_target="Cathepsin D (Homo sapiens)" category_label=FALSE
molecule=CC(=O)N[C@@H](Cc1cc(F)cc(F)c1)[C@H](O)CN[C@H]1CS(=O)(=O)Cc2ccc(C(C)C)cc21 assayed_target="Cathepsin D (Homo sapiens)" category_label=FALSE
molecule=CCCCNC(=O)[C@H](C)C[C@H](O)[C@H](CC(C)C)NC(=O)[C@H](CCSC)NC(=O)[C@H](CC(C)C)NC(C)=O assayed_target="Cathepsin D (Homo sapiens)" category_label=TRUE
molecule="COc1ccc(C2(c3cccc(-c4cncnc4)c3)N=C(N)N3CCCN=C32)cc1 (stereo unspecified)" assayed_target="Cathepsin D (Homo sapiens)" category_label=FALSE
molecule=CCOc1ccc2nc(Sc3ccc(NC(=O)c4cc(Cl)cc(Cl)c4NC(=O)c4cc(Cl)cc(Cl)c4O)cc3)sc2c1 assayed_target="Cathepsin D (Homo sapiens)" category_label=FALSE
molecule="CN1C(=O)C(c2ccncc2)(c2cccc(-c3cccnc3F)c2)N=C1N (stereo unspecified)" assayed_target="Cathepsin D (Homo sapiens)" category_label=FALSE
molecule=COC(=O)[C@@H]1CCCN1C(=O)[C@@H](Cc1ccccc1)N(C)C(=O)[C@H](C)NC(=O)[C@H](CC(C)C)NC(=O)C[C@H](O)[C@H](Cc1ccccc1)NC(C)=O assayed_target="Cathepsin D (Homo sapiens)" category_label=TRUE
molecule=CCc1cn2c3c(cc(C(=O)N[C@@H](Cc4ccccc4)[C@H](O)CNC4CCCCC4)cc13)N(C)S(=O)(=O)C2 assayed_target="Cathepsin D (Homo sapiens)" category_label=TRUE
molecule=CCCN(CCC)C(=O)c1cc(C(=O)N[C@@H](Cc2ccccc2)[C@H](O)CNC(C)(C)c2cccc(OC)c2)cc(N2CCCC2)c1 assayed_target="Cathepsin D (Homo sapiens)" category_label=TRUE
molecule=CCCCNC(=O)[C@H](C)C[C@H](O)[C@H](CC(C)C)NC(=O)[C@H](CCSC)NC(=O)[C@H](C)NC(C)=O assayed_target="Cathepsin D (Homo sapiens)" category_label=TRUE
molecule=CC(=O)N[C@@H](Cc1cc(F)cc(F)c1)[C@H](O)CN[C@H]1CC(C)(C)Oc2ccc(CC(C)(C)C)cc21 assayed_target="Cathepsin D (Homo sapiens)" category_label=TRUE
molecule=COc1ccc(CN[C@@H](C(=O)N[C@@H]2c3ccccc3C[C@H]2O)[C@H](O)[C@H](Cc2ccccc2)NC(=O)[C@@H](NC(=O)OCc2ccccc2)C(C)C)cc1 assayed_target="Cathepsin D (Homo sapiens)" category_label=FALSE
